Tested on: human FGFR3 V555M enzyme (cytoplasmic domain carrying V555M mutation) (Homo sapiens, UniProt P22607, V555M)
Construct: human FGFR3 V555M enzyme (cytoplasmic domain carrying V555M mutation, from Carna Biosciences)
Sequence (P22607 397-806 V555M limits assumed): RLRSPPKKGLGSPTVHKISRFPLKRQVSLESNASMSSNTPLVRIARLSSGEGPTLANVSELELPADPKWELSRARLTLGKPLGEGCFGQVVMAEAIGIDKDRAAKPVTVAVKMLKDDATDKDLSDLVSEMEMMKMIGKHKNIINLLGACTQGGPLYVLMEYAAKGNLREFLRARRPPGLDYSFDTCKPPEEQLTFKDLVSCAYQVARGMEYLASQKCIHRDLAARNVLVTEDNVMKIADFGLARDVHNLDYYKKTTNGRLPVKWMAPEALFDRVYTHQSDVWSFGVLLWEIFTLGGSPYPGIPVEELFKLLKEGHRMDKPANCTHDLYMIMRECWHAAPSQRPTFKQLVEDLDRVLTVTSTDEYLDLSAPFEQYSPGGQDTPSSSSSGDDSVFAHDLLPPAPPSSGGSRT
Protocol summary: FGFR3 V555M mobility shift assay (enzymatic assay)
Settings: 30 μM ATP, 45 minutes at 30° C., Caliper EZ reader II
Binning of IC50 into classes: low bin (below 200 pM), mid bin (200 pM to below 1000 pM), high bin (1000 pM or more)

Asked: Each molecule maps to one class by IC50. Which class for CC(Nc1c(-c2nc3cc(C(F)(F)F)c(N4CCC(C(=O)OC(C)(C)C)CC4)cc3[nH]2)c(=O)[nH]c2ccccc12)c1ncccn1 (single isomer, unassigned) ?
Given back: high bin

Asked: Lookup CC(Nc1c(-c2nc3ccc(N4CCOCC4)cc3[nH]2)c(=O)[nH]c2ccccc12)c1ccn(C(C)C)n1 (single isomer, unassigned) [Compound 36b]
Given back: high bin

Asked: Lookup CCC(Nc1c(-c2nc3ccc(N4CCOCC4)cc3[nH]2)c(=O)[nH]c2ccccc12)c1ncccn1 (single isomer, unassigned) [Compound 30a]
Given back: low bin

Asked: Lookup CC(Nc1c(-c2nc3ccc(N4CCOCC4)c(F)c3[nH]2)c(=O)[nH]c2ccccc12)c1ncccn1 (single isomer, unassigned) [Compound 23a]
Given back: mid bin

Asked: Lookup C[C@@H]1CN(c2ccc3nc(-c4c(N[C@@H](C)c5ccccn5)c5ccccc5[nH]c4=O)[nH]c3c2)C[C@@H](C)O1
Given back: high bin

Asked: Lookup CC(Nc1c(-c2nc3ccc(N4CCC(OC(F)(F)F)CC4)cc3[nH]2)c(=O)[nH]c2ccccc12)c1ncccn1 (single isomer, unassigned) [Compound 43a]
Given back: mid bin

Asked: Lookup C[C@H](Nc1c(-c2nc3ccc(N4CCN(C)CC4)cc3[nH]2)c(=O)[nH]c2ccccc12)c1ccccn1
Given back: low bin

Asked: Lookup CC(Nc1c(-c2nc3ccc(N4CCOCC4)cc3[nH]2)c(=O)[nH]c2ccccc12)c1cocn1 (single isomer, unassigned) [Compound 51a]
Given back: mid bin

Asked: Lookup CC(Nc1c(-c2nc3ccc(N4C[C@@H](C)O[C@@H](C)C4)cc3[nH]2)c(=O)[nH]c2ccccc12)c1ncccn1 (single isomer, unassigned) [Compound 22a]
Given back: mid bin

Asked: Lookup C[C@H](Nc1c(-c2nc3cc(C(F)(F)F)c(N(C)C4CCN(C)CC4)cc3[nH]2)c(=O)[nH]c2ccccc12)c1ccccn1
Given back: mid bin

Asked: Lookup COC(=O)C1CN(c2ccc3nc(-c4c(N[C@@H](C)c5ccccn5)c5ccccc5[nH]c4=O)[nH]c3c2)CCO1 (single isomer, unassigned) [Compound 61]
Given back: high bin

====

Consider the following compounds; for each one, report its IC50.
Tested on: human FGFR3 V555M enzyme (cytoplasmic domain carrying V555M mutation) (Homo sapiens, UniProt P22607, V555M)
Construct: human FGFR3 V555M enzyme (cytoplasmic domain carrying V555M mutation, from Carna Biosciences)
Protocol summary: FGFR3 V555M mobility shift assay (enzymatic assay)
Settings: 30 μM ATP, 45 minutes at 30° C., Caliper EZ reader II
Respond with the bare value in nM.

Asked: Which IC50 reading was recorded for the compound Cc1c(N2CCOCC2)ccc2nc(-c3c(N[C@@H](C)c4ncccn4)c4ccccc4[nH]c3=O)[nH]c12 ?
Given back: 0.27

Asked: Lookup O=c1[nH]c2ccccc2c(NC(c2ncccn2)C2CC2)c1-c1nc2ccc(N3CCOCC3)cc2[nH]1 (single isomer, unassigned) [Compound 33a]
Given back: 0.237

Asked: Lookup CC(Nc1c(-c2nc3ccc(N4CCO[C@@H](C)C4)cc3[nH]2)c(=O)[nH]c2ccccc12)c1ncccn1 (single isomer, unassigned) [Compound 26a]
Given back: 0.178

Asked: Lookup C[C@H](Nc1c(-c2nc3cc(C(F)(F)F)c(N4CCN(C)CC4)cc3[nH]2)c(=O)[nH]c2ccccc12)c1ccccn1
Given back: 2.15

Asked: Lookup CC(Nc1c(-c2nc3ccc(N4CCN(C)CC4)c(F)c3[nH]2)c(=O)[nH]c2ccccc12)c1ccccn1 (single isomer, unassigned) [Compound 13b]
Given back: 0.449

Asked: Lookup CC(Nc1c(-c2nc3cc(C(F)(F)F)c(N4CCN(C)CC4)cc3[nH]2)c(=O)[nH]c2ccccc12)c1ncccn1 (single isomer, unassigned) [Compound 25a]
Given back: 1.03

Asked: Lookup C[C@@H]1CN(c2ccc3nc(-c4c(N[C@@H](C)c5ccccn5)c5ccccc5[nH]c4=O)[nH]c3c2)C[C@H](C)O1
Given back: 1.34

Asked: Lookup C[C@H](Nc1c(-c2nc3ccc(N4CCC(C(=O)O)CC4)cc3[nH]2)c(=O)[nH]c2ccccc12)c1ccccn1
Given back: 0.484

====

Tested on: human FGFR3 V555M enzyme (cytoplasmic domain carrying V555M mutation) (Homo sapiens, UniProt P22607, V555M)
Construct: human FGFR3 V555M enzyme (cytoplasmic domain carrying V555M mutation, from Carna Biosciences)
Protocol summary: FGFR3 V555M mobility shift assay (enzymatic assay)
Settings: 30 μM ATP, 45 minutes at 30° C., Caliper EZ reader II
Consider the following compounds; for each one, report its pIC50.
The read-out pIC50 is expressed as -log10 of concentration in moles per litre.

Asked: Which pIC50 reading was recorded for the compound C[C@H](Nc1c(-c2nc3ccc(N4CCOCC4)cc3[nH]2)c(=O)[nH]c2ccccc12)c1nccc(C2CC2)n1 (single isomer, unassigned) [Compound 50a] ?
Given back: 8.06

Asked: Lookup Cc1cc(N2CCOCC2)cc2[nH]c(-c3c(N[C@@H](C)c4ncccn4)c4ccccc4[nH]c3=O)nc12
Given back: 9.13

Asked: Lookup C[C@H](Nc1c(-c2nc3ccc(OC4CCN(C)CC4)cc3[nH]2)c(=O)[nH]c2ccccc12)c1ccccn1
Given back: 9.58

Asked: Lookup CC(C)N1CCN(c2ccc3nc(-c4c(N[C@@H](C)c5ccccn5)c5ccccc5[nH]c4=O)[nH]c3c2)CC1
Given back: 10.17

Asked: Lookup COc1ccnc(C(C)Nc2c(-c3nc4ccc(N5CCOCC5)cc4[nH]3)c(=O)[nH]c3ccccc23)c1 (single isomer, unassigned) [Compound 48a]
Given back: 8.27

Asked: Lookup C[C@@H](Nc1c(-c2nc3ccc(N4CCOCC4)cc3[nH]2)c(=O)[nH]c2ccccc12)c1ncccn1
Given back: 6.69

====

Tested on: NIH/3T3 cells overexpressing FGFR3 WT-TACC3 fusion protein
Protocol summary: NIH/3T3 FGFR3 WT-TACC3 cellular phospho-ERK assay (in vitro PD assay)
Assay type: cell-based
Settings: Mus musculus, NIH3T3; 1-hr incubation, AlphaLISA SureFire Ultra p-ERK1/2 (Thr202/Tyr204); read-out: NIH/3T3 FGFR3 WT-TACC3 pERK (IC50)
Consider the following compounds; for each one, report its pIC50.
The read-out pIC50 is expressed as -log10 of concentration in moles per litre.

Asked: Which pIC50 reading was recorded for the compound C[C@H](Nc1c(-c2nc3ccc(N4CCOCC4)cc3[nH]2)c(=O)[nH]c2ccccc12)c1ncccn1 ?
Given back: 8.91

Asked: Lookup C[C@@H]1CN(c2ccc3nc(-c4c(N[C@@H](C)c5ccccn5)c5ccccc5[nH]c4=O)[nH]c3c2)C[C@H](C)O1
Given back: 8.41

Asked: Lookup C[C@H](Nc1c(-c2nc3ccc(N4CCOCC4)c(F)c3[nH]2)c(=O)[nH]c2ccccc12)c1ccccn1
Given back: 7.88

Asked: Lookup C[C@@H]1CN(c2ccc3nc(-c4c(N[C@@H](C)c5ccccn5)c5ccccc5[nH]c4=O)[nH]c3c2)C[C@@H](C)O1
Given back: 8.08

====

Consider the following compounds; for each one, report its GI50.
Tested on: NIH/3T3 cells overexpressing FGFR3 V555M-TACC3 fusion protein (Homo sapiens, UniProt P22607, V555M, cells depend on it)
Construct: NIH/3T3 FGFR3 V555M-TACC3 CTG (IC50); other: 72-hr incubation, CellTiter Glo, starting with 10 μM; fused on or other part: Q9Y6A5 (Transforming acidic coiled-coil-containing protein 3)
Sequence (P22607 whole entry V555M, the tested form may be a part): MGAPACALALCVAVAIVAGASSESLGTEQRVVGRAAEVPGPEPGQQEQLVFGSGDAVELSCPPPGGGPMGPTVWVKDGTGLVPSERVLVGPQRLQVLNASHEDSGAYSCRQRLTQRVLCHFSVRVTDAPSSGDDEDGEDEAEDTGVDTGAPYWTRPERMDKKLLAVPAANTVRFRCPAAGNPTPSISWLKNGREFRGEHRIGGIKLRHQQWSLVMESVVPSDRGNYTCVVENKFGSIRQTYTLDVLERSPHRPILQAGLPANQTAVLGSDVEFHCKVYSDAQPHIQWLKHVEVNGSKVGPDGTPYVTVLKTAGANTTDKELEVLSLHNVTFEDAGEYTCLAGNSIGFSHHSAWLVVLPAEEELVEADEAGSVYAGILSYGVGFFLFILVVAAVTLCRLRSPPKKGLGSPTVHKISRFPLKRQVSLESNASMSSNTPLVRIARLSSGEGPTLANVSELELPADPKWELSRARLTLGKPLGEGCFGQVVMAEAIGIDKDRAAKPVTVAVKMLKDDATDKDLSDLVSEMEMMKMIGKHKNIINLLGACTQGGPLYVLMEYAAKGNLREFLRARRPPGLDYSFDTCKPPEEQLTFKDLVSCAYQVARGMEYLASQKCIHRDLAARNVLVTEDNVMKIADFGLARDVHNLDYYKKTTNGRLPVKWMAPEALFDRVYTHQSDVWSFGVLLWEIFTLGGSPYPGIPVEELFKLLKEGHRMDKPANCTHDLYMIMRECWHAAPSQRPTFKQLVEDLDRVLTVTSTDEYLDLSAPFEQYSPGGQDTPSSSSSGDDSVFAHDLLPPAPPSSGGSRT
Protocol summary: NIH/3T3 FGFR3 V555M-TACC3 cell proliferation assay
Type: cell-based
Settings: 72-hr incubation, CellTiter Glo, starting with 10 μM; read-out: NIH/3T3 FGFR3 V555M-TACC3 CTG (IC50)
Respond with the bare value in nM.

Asked: Which GI50 reading was recorded for the compound C[C@H](Nc1c(-c2nc3cc(C(F)(F)F)c(NC4CCN(C)CC4)cc3[nH]2)c(=O)[nH]c2ccccc12)c1ccccn1 ?
Given back: 87.8

Asked: Lookup C[C@H](Nc1c(-c2nc3ccc(N4CCN(C)C(=O)C4)cc3[nH]2)c(=O)[nH]c2ccccc12)c1ccccn1
Given back: 24.9

Asked: Lookup CC(C)C(Nc1c(-c2nc3ccc(N4CCOCC4)cc3[nH]2)c(=O)[nH]c2ccccc12)c1ncccn1 (single isomer, unassigned) [Compound 32a]
Given back: 5.75

Asked: Lookup O=c1[nH]c2ccccc2c(NC(c2ncccn2)C2CC2)c1-c1nc2ccc(N3CCOCC3)cc2[nH]1 (single isomer, unassigned) [Compound 33a]
Given back: 6.41

Asked: Lookup COC(=O)C1CN(c2ccc3nc(-c4c(N[C@@H](C)c5ccccn5)c5ccccc5[nH]c4=O)[nH]c3c2)CCO1 (mixture of isomers) [Compound 59]
Given back: 61.7

Asked: Lookup CC(Nc1c(-c2nc3cc(C(F)(F)F)c(N4CCC(C(=O)O)CC4)cc3[nH]2)c(=O)[nH]c2ccccc12)c1ncccn1 (single isomer, unassigned)
Given back: 28.9

Asked: Lookup C[C@H](Nc1c(-c2nc3ccc(N4CCOCC4)cc3[nH]2)c(=O)[nH]c2c(F)cccc12)c1ccccn1
Given back: 274

Asked: Lookup C[C@H](Nc1c(-c2nc3ccc(C(=O)N4CCOCC4)cc3[nH]2)c(=O)[nH]c2ccccc12)c1ccccn1
Given back: 17.1

Asked: Lookup C[C@H](Nc1c(-c2nc3cc(C(F)(F)F)c(N(C)C4CCN(C)CC4)cc3[nH]2)c(=O)[nH]c2ccccc12)c1ccccn1
Given back: 66.5

Asked: Lookup CC(Nc1c(-c2nc3ccc(N4CCOCC4)cc3[nH]2)c(=O)[nH]c2ccccc12)c1cnccn1 (single isomer, unassigned) [Compound 35b]
Given back: 197

Asked: Lookup COC(=O)C1CN(c2ccc3nc(-c4c(N[C@@H](C)c5ccccn5)c5ccccc5[nH]c4=O)[nH]c3c2)CCO1 (single isomer, unassigned) [Compound 62]
Given back: 451

Asked: Lookup C[C@@H]1CN(c2ccc3nc(-c4c(N[C@@H](C)c5ccccn5)c5ccccc5[nH]c4=O)[nH]c3c2)C[C@H](C)O1
Given back: 42.7

Asked: Lookup CCCC(Nc1c(-c2nc3ccc(N4CCOCC4)cc3[nH]2)c(=O)[nH]c2ccccc12)c1ncccn1 (single isomer, unassigned) [Compound 31a]
Given back: 14.3

Asked: Lookup C[C@H](Nc1c(-c2nc3ccc(N4CCOCC4)cc3[nH]2)c(=O)[nH]c2ccc(F)cc12)c1ccccn1
Given back: 114

Asked: Lookup C[C@@H]1CN(c2ccc3nc(-c4c(N[C@@H](C)c5ncccn5)c5ccccc5[nH]c4=O)[nH]c3c2)CCO1 (single isomer, unassigned) [Compound 40a]
Given back: 1.85

Asked: Lookup C[C@H](Nc1c(-c2nc3cc(C(F)(F)F)c(N4CCN(C)CC4)cc3[nH]2)c(=O)[nH]c2ccccc12)c1ccccn1
Given back: 141

Asked: Lookup CC(Nc1c(-c2nc3ccc(N4CCOCC4)cc3[nH]2)c(=O)[nH]c2ccccc12)c1cscn1 (single isomer, unassigned) [Compound 52a]
Given back: 6.69
